Target: [^3 H]MK-801 binding, rat SPM (NMDA receptor)
Assay: [^3 H]MK-801 Binding assay (Triton X-100 treated rat synaptic plasma membranes)
Conditions: 5.0 nM [^3 H]MK-801, L-glutamate 10.0 nM, 25° C., 30 min, pH 7.4
Protocol: Modulation of [^3 H]MK-801 binding was performed using Triton X-100 (0.04% v/v) treated rat SPM that had been extensively washed. Assay incubations were at 25° C. for 30 min. and contained 5.0 nM [^3 H]MK-801, L-glutamate (10.0 nM), and various concentrations of the tested compound of the invention in 50 mM Tris/acetate, pH 7.4. […] The radioactivity associated with the filter was determined by liquid scintillation spectrometry. […] IC50 were determined using a logit-log transformation of the binding data.
Assay Endpoint: Ki
Record the result as a number with its unit.

### Prompt Under [^3 H]MK-801 binding, rat SPM (NMDA receptor): Ki value of O=C(O)c1cn2c(CP(=O)(O)O)ccnc2n1 [Example 1] ?
### Response 4.6 µM
